B1: ZNF449 (parent)
chain: CTHCSKSFRQRAGLIMHQVTHFRG

- Variants of: B1
- Assay Protocol: protein stability index of a GFP-peptide fusion (GPS, HEK-293T) (PSI 1-6); higher = more stable;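 further: lentivirally expressed fusions sorted by FACS into six bins by GFP to DsRed ratio, PSI derived from sequencing read proportions per bin multiplied by bin number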
- Measurement Setup: c terminus: a fixed tail appended
Property: protein stability index
// print number alone

C1R    1.93
H3Y    2.28

State its protein stability index for this variant: H17L
1.69

State its protein stability index for this variant: H3N
2.18

State its protein stability index for this variant: S7I
1.73

State its protein stability index for this variant: S5L
1.49

State its protein stability index for this variant: F8K
1.9

meta.source: the supplement of paper PMC10567573
